- ASSAY COMMENT: Pharmacokinetics after 30 min i.v. infusion, phase I trial in hepatocellular carcinoma patients
- Format: in vivo, human
- SETUP CONDITIONS: human, iv; 600 mg/m^2, 30 min i.v. infusion, plasma, mean ± SD
ENDPOINT LABEL: Cmax (µM)
The response must be a number in µM with no trailing unit.

Exercise: What does the record list as Cmax for O=C(/C=C/c1cccc(S(=O)(=O)Nc2ccccc2)c1)NO [Belinostat] ?
Solution: 88.2

----------
- ASSAY COMMENT: Pharmacokinetics after 30 min i.v. infusion, phase I trial in hepatocellular carcinoma patients
- Assay type: in vivo, human
- SETUP CONDITIONS: human, plasma, iv; 600 mg/m^2, 30 min i.v. infusion; read-out: Vz (volume of distribution)
ENDPOINT LABEL: Vd
Entry format: amount then unit.

Exercise: Query (molecule): O=C(/C=C/c1cccc(S(=O)(=O)Nc2ccccc2)c1)NO ; field requested: Vd
Solution: 268 L
